Recorded Pre-emerge Herbicidal Activity AMARE values for a group of molecules are listed next.
tested on: redroot pigweed (Amaranthus retroflexus, AMARE); assay: Pre-emerge test, greenhouse herbicide activity screening; type: in vivo; details: 63 g ai/ha; phytotoxicity rating 0-100, 14 days after application

COMPOUND_STRUCTURE_STRING: CCc1ccc(COC(=O)Nc2c(OC)c(Cl)cc(F)c2-n2c(=O)cc(C(F)(F)F)n(C)c2=O)cc1
Pre-emerge Herbicidal Activity AMARE: 100
--
COMPOUND_STRUCTURE_STRING: Cc1ccc(-n2c(=O)cc(C(F)(F)F)n(C)c2=O)c(NC(=O)c2ccc3ccccc3c2)c1
Pre-emerge Herbicidal Activity AMARE: 95
--
COMPOUND_STRUCTURE_STRING: Cn1c(C(F)(F)F)cc(=O)n(-c2ccc(OC(F)(F)F)cc2NC(=O)c2ccc3ccccc3c2)c1=O
Pre-emerge Herbicidal Activity AMARE: 70
--
COMPOUND_STRUCTURE_STRING: COc1c(Cl)cc(F)c(-n2c(=O)cc(C(F)(F)F)n(C)c2=O)c1NC(=O)OCc1c(Cl)cccc1Cl
Pre-emerge Herbicidal Activity AMARE: 100
--
COMPOUND_STRUCTURE_STRING: COc1c(Cl)cc(F)c(-n2c(=O)cc(C(F)(F)F)n(C)c2=O)c1NC(=O)C1CC1
Pre-emerge Herbicidal Activity AMARE: 0
--
COMPOUND_STRUCTURE_STRING: COc1ccc(COC(=O)Nc2c(OC)c(Cl)cc(F)c2-n2c(=O)cc(C(F)(F)F)n(C)c2=O)cc1
Pre-emerge Herbicidal Activity AMARE: 100
--
COMPOUND_STRUCTURE_STRING: CC(C)Oc1c(Cl)cc(F)c(-n2c(=O)cc(C(F)(F)F)n(C)c2=O)c1NC(=O)c1ccc2ccccc2c1
Pre-emerge Herbicidal Activity AMARE: 100
--
COMPOUND_STRUCTURE_STRING: Cn1c(C(F)(F)F)cc(=O)n(-c2ccc(C(N)=S)cc2NC(=O)c2ccc3ccccc3c2)c1=O
Pre-emerge Herbicidal Activity AMARE: 100
